This section presents molecules with their documented IC50 values.
Target: human PPARα (Homo sapiens)
Construct: PPARγ (aa 174 to 476) and PPARα (aa 167 to 469); made in house; host or cells: E. coli BL21(pLysS)
Sequence (Q07869 167-468 limits assumed): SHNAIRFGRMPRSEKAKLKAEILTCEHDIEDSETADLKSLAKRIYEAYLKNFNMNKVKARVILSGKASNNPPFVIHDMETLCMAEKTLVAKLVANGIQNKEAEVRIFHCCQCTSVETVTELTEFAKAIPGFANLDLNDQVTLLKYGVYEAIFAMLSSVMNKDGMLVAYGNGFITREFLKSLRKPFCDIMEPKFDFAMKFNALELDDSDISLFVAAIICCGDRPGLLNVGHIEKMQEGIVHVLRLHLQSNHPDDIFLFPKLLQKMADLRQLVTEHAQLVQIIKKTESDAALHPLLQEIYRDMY
Assay: Radioligand binding assay, GST-PPARα-LBD

- molecule: "CO[C@@H](Cc1ccc(OCCc2nc(-c3ccccc3)oc2C)cc1O)C(=O)O [Example 23]"
  units: "nM"
  IC50: 52
- molecule: "CCO[C@@H](Cc1ccc(OCCCc2nc(-c3ccccc3)oc2C)cc1C)C(=O)O [Example 43]"
  units: "nM"
  IC50: 131

###

Target: human PPARα (Homo sapiens)
Construct: PPARγ (aa 174 to 476) and PPARα (aa 167 to 469); made in house; host or cells: E. coli BL21(pLysS)
Sequence (Q07869 167-468 limits assumed): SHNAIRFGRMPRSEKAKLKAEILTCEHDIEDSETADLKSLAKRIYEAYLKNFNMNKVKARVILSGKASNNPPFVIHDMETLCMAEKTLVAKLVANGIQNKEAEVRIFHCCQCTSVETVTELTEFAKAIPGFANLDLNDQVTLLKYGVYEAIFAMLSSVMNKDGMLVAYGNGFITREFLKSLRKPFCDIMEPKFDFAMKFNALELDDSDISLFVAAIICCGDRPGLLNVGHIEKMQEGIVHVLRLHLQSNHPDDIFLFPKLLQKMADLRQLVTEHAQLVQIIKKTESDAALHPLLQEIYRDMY
Experiment: Radioligand binding assay, GST-PPARα-LBD
Conditions: GST-PPARα-LBD, tritiated radioligand, RT 2 hrs; read-out: PPARα IC50
# strict inequality: IC50 < 200 nM yields MET, everything else yields NOT MET

- compound: "CCO[C@@H](Cc1ccc(OCc2nc(-c3ccc(OC(C)C)cc3)oc2C)cc1C)C(=O)O [Example 2]"
  experimental-system: "human PPARα (Homo sapiens)"
  assigned-class: "MET"
- compound: "CCO[C@@H](Cc1ccc(OCc2nc(-c3ccccc3)oc2C)cc1C)C(=O)O [Example 3]"
  experimental-system: "human PPARα (Homo sapiens)"
  assigned-class: "MET"
- compound: "CCO[C@@H](Cc1ccc(OCc2nc(-c3ccc(C(C)C)cc3)oc2C)cc1OC)C(=O)O [Example 25]"
  experimental-system: "human PPARα (Homo sapiens)"
  assigned-class: "MET"
- compound: "CCO[C@@H](Cc1c(C)cc(OCc2nc(-c3ccccc3)oc2C)cc1C)C(=O)O [Example 29]"
  experimental-system: "human PPARα (Homo sapiens)"
  assigned-class: "NOT MET"
- compound: "CCO[C@@H](Cc1ccc(OCc2nc(-c3ccc(F)c(C)c3)oc2C)cc1C)C(=O)O [Example 5]"
  experimental-system: "human PPARα (Homo sapiens)"
  assigned-class: "MET"
- compound: "CCO[C@@H](Cc1ccc(OCc2nc(-c3ccc(OC(C)C)cc3)oc2C)cc1Cl)C(=O)O [Example 17]"
  experimental-system: "human PPARα (Homo sapiens)"
  assigned-class: "MET"

Just for reference, patent US7348349B2 is where these values come from.
